- System: BJ
- method.summary: Cytotoxicity in human BJ cells assessed as reduction in cell viability incubated for 72 hrs by calcein AM cytotoxicity assay
- Type: functional, cell-based
- assay.conditions: Homo sapiens, BJ, 72 h
pIC50: −log10 of the molar value.
endpoint: pIC50

Observe how each entry below is paired with its result.
structure.smiles	pIC50
CC(=O)OC[C@@]1(C(=O)OCCBr)CC[C@]2(C)[C@H](CC[C@@H]3[C@@]4(C)CC[C@H](OC(C)=O)C(C)(C)[C@@H]4CC[C@]32C)[C@@H]1O	< 4.30
CC(=O)OC[C@H]1O[C@@H](OC(=O)[C@]23CC[C@@H](C(C)C)[C@@H]2[C@H]2CC[C@@H]4[C@@]5(C)CC[C@H](O)C(C)(C)[C@@H]5CC[C@@]4(C)[C@]2(C)CC3)[C@H](OC(C)=O)[C@@H](OC(C)=O)[C@H]1OC(C)=O	< 4.30

Moving on to the next molecule.
What pIC50 value was documented for this molecule, CC(=O)OC[C@@]1(C(=O)OCCN2CCCCC2)CC[C@]2(C)[C@H](CC[C@@H]3[C@@]4(C)CC[C@H](OC(C)=O)C(C)(C)[C@@H]4CC[C@]32C)[C@@H]1O ?
< 4.30

====

- System: MCF7
- method.summary: Cytotoxicity in human MCF7 cells assessed as reduction in cell viability incubated for 72 hrs by calcein AM cytotoxicity assay
- Assay type: functional, cell-based
- assay.conditions: Homo sapiens, MCF7, 72 h
pIC50: −log10 of the molar value.
endpoint: pIC50

Observe how each entry below is paired with its result.
>>> print(df.to_string())
                           structure_smiles  system_name  endpoint  test_value
0  C=C(C)[C@@H]1CC[C@]2(C(=O)OCC(=O)O)CC[C@]3(C)[C@H](CC[C@@H]4[C@@]5(C)CC[C@H](O)C(C)(C)[C@@H]5CC[C@]43C)[C@@H]12         MCF7     pIC50      < 4.30
1  C=C(C)[C@@H]1CC[C@]2(C(=O)OCC(=O)OCc3ccccc3)CC[C@]3(C)[C@H](CC[C@@H]4[C@@]5(C)CC[C@H](O)C(C)(C)[C@@H]5CC[C@]43C)[C@@H]12         MCF7     pIC50      < 4.30

Moving on to the next compound.
What pIC50 value was documented for this compound, CC(C)[C@@H]1CC[C@]2(C(=O)OCC(=O)O)CC[C@]3(C)[C@H](CC[C@@H]4[C@@]5(C)CC[C@H](O)C(C)(C)[C@@H]5CC[C@]43C)[C@@H]12 ?
< 4.30

====

- System: G-361
- method.summary: Cytotoxicity in human G361 cells assessed as reduction in cell viability incubated for 72 hrs by calcein AM cytotoxicity assay
- Assay type: functional, cell-based
- assay.conditions: Homo sapiens, G-361, 72 h
pIC50: −log10 of the molar value.
endpoint: pIC50

structure.smiles	system.name	pIC50
CC(C)[C@@H]1CC[C@]2(C(=O)O[C@@H]3O[C@H](CO)[C@H](O)[C@H](O)[C@H]3O)CC[C@]3(C)[C@H](CC[C@@H]4[C@@]5(C)CC[C@H](O)C(C)(C)[C@@H]5CC[C@]43C)[C@@H]12	G-361	< 4.30
C=C(C)[C@@H]1CC[C@]2(C(=O)O[C@@H]3O[C@H](COC(C)=O)[C@@H](OC(C)=O)[C@H](OC(C)=O)[C@H]3OC(C)=O)CC[C@]3(C)[C@H](CC[C@@H]4[C@@]5(C)CC[C@H](O)C(C)(C)[C@@H]5CC[C@]43C)[C@@H]12	G-361	< 4.30

Moving on to the next compound.
What pIC50 value was documented for this compound, CC(=O)OC[C@H]1O[C@@H](OC(=O)[C@]2(COC(C)=O)CC[C@]3(C)[C@H](CC[C@@H]4[C@@]5(C)CC[C@H](OC(C)=O)C(C)(C)[C@@H]5CC[C@]43C)[C@@H]2O)[C@H](OC(C)=O)[C@@H](OC(C)=O)[C@@H]1OC(C)=O ?
< 4.30

Where these numbers come from: ChEMBL document CHEMBL4190365
